B1: Calcium-binding protein 2, residues 155 to 219; numbered along this chain, Q9NPB3 (parent)
chain: RELRDAFREFDTNGDGRISVGELRAALKALLGERLSQREVDEILQDVDLNGDGLVDFEEFVRMMS

Variants of: B1
Test: abundance fitness (aPCA) (normalised: wild type 0, dead -1); higher = more abundant; growth selection in yeast, the domain comes from the species named
Settings: Homo sapiens
Binary classification by abundance fitness, with -0.2 as an inclusive lower bound for yes; all other cases are no.

MONOMER_SEQUENCE: RELRDAFREFDTNGDGRISVGELRAALKALLGERLSQREVDAILQDVDLNGDGLVDFEEFVRMMS [E42A]
CLASS_ASSIGNMENT: yes
--
MONOMER_SEQUENCE: RELRDAFREFDTNGDGRISVGELRAALKALKGERLSQREVDEILQDVDLNGDGLVDFEEFVRMMS [L31K]
CLASS_ASSIGNMENT: yes
--
MONOMER_SEQUENCE: RELRDAFREFDTNGDGRISVGELRAALKALLGERLSQLEVDEILQDVDLNGDGLVDFEEFVRMMS [R38L]
CLASS_ASSIGNMENT: yes
--
MONOMER_SEQUENCE: RELRDAFREFDTNGDGRISVGELRAALKALLGERLSQREVDEILQDVDLNGDGLVDFSEFVRMMS [E58S]
CLASS_ASSIGNMENT: yes
--
MONOMER_SEQUENCE: RELRDAFREFDTNGDGRISVGELRAADKALLGERLSQREVDEILQDVDLNGDGLVDFEEFVRMMS [L27D]
CLASS_ASSIGNMENT: no
--
MONOMER_SEQUENCE: RELRDAFREFDTNGDGRISVGELRAALKALLGERLSQREVDEILQDVDLNGDGLIDFEEFVRMMS [V55I]
CLASS_ASSIGNMENT: yes
--
MONOMER_SEQUENCE: RELRDAFREFDTNGDGRISVGELRAAKKALLGERLSQREVDEILQDVDLNGDGLVDFEEFVRMMS [L27K]
CLASS_ASSIGNMENT: yes
--
MONOMER_SEQUENCE: RELRDAFREFDTNGDGRISVGELRAALKALLGERLSQREVDEILQDVDLNGDGRVDFEEFVRMMS [L54R]
CLASS_ASSIGNMENT: no
--
MONOMER_SEQUENCE: RELRDAFREFDTNGDGRISVGELRAALKALLGERLSQREVDEILQDVDLNGDGLVDFEEFVRMES [M64E]
CLASS_ASSIGNMENT: yes
